List of CR (%) values.
- Test system: mAb3C9
- ASSAY_DETAILS: mimotope-based dcELISA (mAb3C9 and M20-GST-BAD/SA-HRP competitor)
- Format: binding, mouse
- SETTINGS: M20-GST-BAD; (IC50 of parathion-methyl/IC50 of pesticide) × 100
- Experimental: To develop a mimotope-based dcELISA, the biotinylated mimotope fusion protein was firstly assembled with streptavidin-HRP conjugate (SA-HRP) utilized the high affinity of biotin and streptavidin. […] The optimal condition for mimotope-based dcELISA was optimized as chemosynthesized antigen-based dcELISA. The selectivity and sensitivity of the developed mimotope-based dcELISA for the 24 OPs were also determined under the optimum condition.
Report only the number, with the unit % understood.

Worked set:
COMPOUND: COP(=S)(OC)Oc1ccc([N+](=O)[O-])c(C)c1
TARGET_UNDER_TEST: mAb3C9
PROPERTY_LABEL: CR (%)
NUMERIC_RESULT: 104.1

COMPOUND: CCN(CC)c1nc(C)cc(OP(=S)(OC)OC)n1
TARGET_UNDER_TEST: mAb3C9
PROPERTY_LABEL: CR (%)
NUMERIC_RESULT: 6.0

COMPOUND: COP(=S)(OC)SCN1C(=O)c2ccccc2C1=O
TARGET_UNDER_TEST: mAb3C9
PROPERTY_LABEL: CR (%)
NUMERIC_RESULT: 332.9

Kindly consider the entry below.
So, "COP(=S)(OC)Oc1ccc(SC)c(C)c1" ? Its CR (%) was 21.6
